Assay: Solubility measurement in various solvents at 50° C. (Procedure 2)
Assay type: physicochemical
Conditions: 10% water in acetone, organic solvent or mixture
Measure name: solubility (µg/mL)
Your answer is read as µg/mL, so omit the unit and give the number.

Query: Please list solubility recorded for the molecule Cl.Cl.Cn1c(C(=O)Nc2cccc(-c3cccc(NC(=O)c4nc5c(n4C)CCN(CCC46CCC(C(=O)O)(CC4)C6)C5)c3Cl)c2Cl)nc2c1CCN(CCC13CCC(C(=O)O)(CC1)C3)C2
Reply: 5710

---

Experiment: Solubility measurement in various solvents at 25° C. (Procedure 1)
Type: physicochemical
Conditions: IPAc, organic solvent or mixture, thermodynamic from solid
Measure name: solubility (µg/mL)
Your answer is read as µg/mL, so omit the unit and give the number.

Query: Please list solubility recorded for the compound Cl.Cl.Cn1c(C(=O)Nc2cccc(-c3cccc(NC(=O)c4nc5c(n4C)CCN(CCC46CCC(C(=O)O)(CC4)C6)C5)c3Cl)c2Cl)nc2c1CCN(CCC13CCC(C(=O)O)(CC1)C3)C2
Reply: 10
